experiment: Single-dose pharmacokinetics of T+Ai pellet implant (80 mg testosterone + 4 mg anastrozole, subcutaneous); details: human, in vivo, sc, 4 mg, Measured serum anastrozole, mean, 4 h post-dose
QUANTITY MEASURED: concentration at 4 h (ng/mL)
Field: numeric (ng/mL). Do not append units.

// CC(C)(C#N)c1cc(Cn2cncn2)cc(C(C)(C)C#N)c1 [Anastrozole] : concentration at 4 h value = 1.37

###

experiment: Single-dose pharmacokinetics of T+Ai pellet implant (80 mg testosterone + 4 mg anastrozole, subcutaneous); details: human, in vivo, sc, 4 mg, plasma anastrozole concentration after 12 weeks, below limit of quantitation in most participants after 12 weeks
QUANTITY MEASURED: concentration at 2016 h

// CC(C)(C#N)c1cc(Cn2cncn2)cc(C(C)(C)C#N)c1 : concentration at 2016 h value = < 0.1 ng/mL
